// reported TGI for each item listed
test system: 786-0 renal; assay: NCI tumour cell line growth inhibition, 48 h

compound | TGI
COc1c(O)c(OC)c2oc(-c3ccc(O)c(O)c3)c(OC)c(=O)c2c1O | 50.9 µM
NC(CSCc1ccc(I)cc1)C(=O)O (stereo not given) | > 100 µM
COC(=O)C(=O)C(C(=O)C(=O)Nc1cccc(C(C)=O)c1)c1nc2ccc([N+](=O)[O-])cc2[nH]c1=O (stereo not given) | > 100 µM
CN1CCC(COc2cnc(-c3cccc(Cn4nc(-c5cccc(C#N)c5)ccc4=O)c3)nc2)CC1 | 3.86 µM
COc1ccc(N=C2S/C(=N\C(=Nc3ccccc3)SCc3ccccc3)N(c3ccccc3)C2=Nc2ccc(OC)cc2)cc1 | > 100 µM

// query // lookup TGI for `Cc1cc(Nc2ccc(OCc3ccccc3)cc2)nc2cc(O)ccc12`
// result 17.2 µM

// query // lookup TGI for `OCc1cc2c(ccc3sc4ccc5sc6ccc7ncccc7c6c5c4c32)s1`
// result 15.1 µM

// query // lookup TGI for `O=C1/C(=N\O)c2ccccc2S1(=O)=O`
// result > 100 µM

// query // lookup TGI for `CCOc1ccc(N/C(=C(/C(Cl)=C(/Cl)Nc2ccccc2)[N+](=O)[O-])n2nnc3ccccc32)cc1`
// result 62.3 µM

// query // lookup TGI for `COC(=O)[C@H](Cc1ccccc1)NC(=O)/C(=C/C(C)C)NC(=O)[C@H](CCSC)NC=O`
// result > 100 µM

// query // lookup TGI for C=CC(=O)NCCSCCCOC1(C(=O)O)CC(O)C(NC(C)=O)C(C(O)C(O)CO)O1 (stereo not given)
// result > 100 µM

// query // lookup TGI for CC[C@H]1CN2CCc3cc(OC)c(OC)cc3C2C[C@@H]1CC1NCCc2cc(OC)c(OC)cc21 (stereo not given in full)
// result 0.128 µM

// query // lookup TGI for `C=CCc1[nH]c2c(OCc3ccccc3)cc(N(CC=C)C(C)=O)cc2c1C`
// result 28 µM

// query // lookup TGI for `CC1=NN(c2nc(N)nc(CBr)n2)C(C)(C)C1`
// result 1.78 µM

// query // lookup TGI for `COc1ccc2sc3cccc(NCCN(C)C)c3c(=O)c2c1`
// result 14.5 µM

// query // lookup TGI for `CCCCNc1nc2ccccc2c2c1ncn2CC(C)C`
// result > 100 µM

// query // lookup TGI for COC(=O)CCC(NC(=S)N/N=C/c1ccccn1)C(=O)OC (stereo not given)
// result > 100 µM

---

system: NCI-H226 lung; assay: NCI tumour cell line growth inhibition, 48 h
endpoint: TGI

lineNotation | result
c1ccc2c(CN3CCN(Cc4c[nH]c5ccccc45)CC3)c[nH]c2c1 | 37.7 µM
CCN(CC)Cc1cc(Nc2c3ccccc3nc3c2[nH]c2ccccc23)cc(CN(CC)CC)c1O | 6.01 µM

We now examine a further compound.
// query // lookup TGI for `Cn1cc(C2=C(c3ccccc3[N+](=O)[O-])C(=O)NC2=O)c2ccccc21`
// result > 20.3 µM

---

// reported TGI for each item listed
test system: HOP-62 NSCLC; assay: NCI tumour cell line growth inhibition, 48 h

# count of solved cases: 10
compound | TGI
CC1=NN(c2nc(N)nc(CBr)n2)C(C)(C)C1 | 35.1 µM
Nc1ccccc1NC(=O)c1ccc(CNc2nccc(-c3cccnc3)n2)cc1 | > 51.8 µM
COc1ccccc1C1C(Cl)C(=O)N1n1cnc2ccccc2c1=O (stereo unspecified) | > 100 µM
Cn1c2ccccc2n2c3ncccc3c(=NCCCC(=O)O)c(C#N)c12 | > 100 µM
CC1(C)N=C(N)N=C(N)N1c1ccc(CCCCc2ccccc2)c(Cl)c1 | 5.46 µM
Cc1c(C)c(C)c(CC2(C)CSC2)c(CC2(C)CSC2)c1C | > 100 µM
O=C(C=C1SCCS1)/C=C\c1ccc(Cl)cc1 | > 100 µM
COC(=O)C1=Cc2cc(OC)c(OC)c(OC)c2[C@H](c2cc(OC)c(OC)c(OC)c2)C1C(=O)OC (stereo partly specified) | > 100 µM
C=C(C)C1CC/C(C)=C/CCC2(C)OC2CC/C(CO)=C\C1O (stereo unspecified) | > 100 µM
O=P1(Oc2ccccc2)N=P(c2ccccc2)(c2ccccc2)C=C(c2ccc(Cl)cc2)N1 (stereo unspecified) | 33.6 µM

// query // lookup TGI for CCOC(=O)CCC(NC(=O)Cc1ccc(Nc2nc3ccccc3nc2-c2cccs2)cc1)C(=O)OCC (stereo unspecified)
// result > 100 µM

// query // lookup TGI for `Cc1nc2c(c(=O)[nH]1)S/C(=C(/C#N)c1nc3ccccc3[nH]1)N2c1ccccc1`
// result > 100 µM

// query // lookup TGI for `COc1ccc(N=Cc2c(O)ccc3c2oc2cc(Cl)c(O)c(Cl)c23)cc1`
// result 33.5 µM

// query // lookup TGI for `FC(F)(F)c1ccc(Cc2nc3cc4ccccc4cc3[nH]2)cc1`
// result > 100 µM

// query // lookup TGI for COC(=O)c1c(C)cccc1C1CN=NC12Cc1ccccc1C2=O (stereo unspecified)
// result > 100 µM

// query // lookup TGI for `Nc1ccc2nc3c(nc2c1)C(=O)c1ccccc1-3`
// result > 100 µM

---

tested on: HT29 colon; assay: NCI tumour cell line growth inhibition, 48 h
// reported TGI for each item listed
Enter your answer as a number in µM; do not include the unit.

// query Short answer please: TGI, HT29 colon, entry CC1(C)CC(O)C2=C(O1)C(=O)c1ncccc1C2=O (stereo not given)
// result 35.8

// query Short answer please: TGI, HT29 colon, entry `O=C(COc1ccc(/C=C2\COc3ccccc3C2=O)cc1)Nc1nccs1`
// result 12.9

// query Short answer please: TGI, HT29 colon, entry `COc1cc(=O)c2c(O)c3c(O)oc(C)cc3c(OC)c2c1`
// result 40.7

---

system: MDA-MB-231 breast; assay: NCI tumour cell line growth inhibition, 48 h
// reported GI50 for each item listed

// query // lookup GI50 for `CCC(CC)c1nc(Nc2ccc(C(=O)OC)cc2)c2ccccc2n1`
// result 8590 nM

// query // lookup GI50 for `C=C(C)[C@@H]1CC[C@]2(COCCC#N)CC[C@]3(C)[C@H](CC[C@@H]4[C@@](C)(CCCNCCC#N)[C@H](C(=C)C)CC[C@]43C)[C@@H]12`
// result 7830 nM

// query // lookup GI50 for CCOC(=O)C1=C(C)N=c2s/c(=C\c3ccccc3O)c(=O)n2C1c1ccc(OC)c2ccccc12 (centres undefined)
// result 2690 nM

// query // lookup GI50 for `COc1ccc(C(=O)Nc2ncc(Cc3cccc(Cl)c3)s2)cc1OC`
// result 1770 nM

// query // lookup GI50 for `N#Cc1c(NC(=O)NCc2ccccc2)sc2c1CCCC2`
// result 1730 nM

---

test system: HL-60(TB) leukemia; experiment: NCI tumour cell line growth inhibition, 48 h
Given measured TGI, output Criterion met if it is greater than or equal to 20 µM and Criterion not met if not.

Would you please look over these solved cases?
compound | label
C=C(C)C1CC/C(C)=C/CCC2(C)OC2CC/C(CO)=C\C1O (stereo unspecified) | Criterion met
C[n+]1c(/C=C/c2c[nH]c3ccccc23)ccc2ccccc21 | Criterion met
Cc1cc(Nc2ccc(OCc3ccccc3)cc2)nc2cc(O)ccc12 | Criterion not met
O=C1C(Cl)=C(Sc2nnc3c4ccccc4c4ccccc4c3n2)C(=O)c2ccccc21 | Criterion not met
CC1(C)CC(=O)C(/C=N/C(N)=S)=C(O)C1 | Criterion met
O=Cc1c2n(c3ccccc13)N[C@@](Cc1ccc(O)cc1)(C(=O)O)C2 | Criterion met
CCOC(=O)[C@@H](C)C[C@H](Cc1ccccc1)NC(=O)c1nc([C@@H](C[C@H](C(C)C)N(C)C(=O)[C@@H](NC(=O)[C@H]2CCCCN2C)C(C)C)OC(C)=O)sc1CCOCc1ccccc1 | Criterion not met
Nc1c(-c2cn(Cc3ccccc3)c3ccccc23)[n+]([O-])c2ccccc2[n+]1[O-] | Criterion met
NC1=NC2=c3ccccc3=C(c3cnccn3)C2(c2cnccn2)c2ccccc21 (stereo unspecified) | Criterion met

Note: attention shifts to another entry.
// query Given `CC(C)(C)c1cc(-c2cc(C(C)(C)C)[nH]n2)n[nH]1` , state whether its TGI is at least 20 µM.
// result Criterion met

---

// reported log10 TGI for each item listed
system: LOX IMVI melanoma; assay: NCI tumour cell line growth inhibition, 48 h
Would you kindly interpret these values as log10 of TGI expressed in µM?

compound | quantitativeReadout
COc1ccc2c(c1O)-c1cc(O)cc3c1[C@@H](C2)N(C)CC3 | 2.15

// query // lookup log10 TGI for `NC1=CC(=O)c2cccnc2C1=O`
// result 0.43

// query // lookup log10 TGI for `CCC(CC)c1nc(Nc2ccc(C(=O)OC)cc2)c2ccccc2n1`
// result 1.50

// query // lookup log10 TGI for `COc1ccc(OC(C)=O)c2c1CCC=CC2=O`
// result 1.24

// query // lookup log10 TGI for `C=CCc1[nH]c2c(OCc3ccccc3)cc(N(CC=C)C(C)=O)cc2c1C`
// result 1.40

// query // lookup log10 TGI for `CSc1ccc(-c2ccccc(=O)c2O)cc1`
// result 1.23

// query // lookup log10 TGI for `Cc1cc(Nc2ccc(OCc3ccccc3)cc2)nc2cc(O)ccc12`
// result 0.81

// query // lookup log10 TGI for `C=C(C)C(=O)O[C@H]1CC2=C[C@@H](C[C@@]3(C)O[C@@H]3[C@H]3OC(=O)C(=C)[C@@H]31)OC2=O`
// result 0.11

// query // lookup log10 TGI for C=C1CCCC2[C@](C)(CC3=C(Cl)C(=O)C=C(OC)C3=O)C(C)CC[C@]12C (some centres not stated)
// result 0.63

// query // lookup log10 TGI for COc1cccc(CCC2CCCN(c3cc(C)nc(N)n3)C2)c1 (configuration not stated)
// result 0.88

// query // lookup log10 TGI for Cc1[nH]c(=O)nc2c1C(NCCCN(C)C)c1cc(Cl)ccc1N2 (configuration not stated)
// result 1.39
